Biological target: T1, CXCL11_HUMAN (human, UniProt O14625 22-94)
T1 sequence: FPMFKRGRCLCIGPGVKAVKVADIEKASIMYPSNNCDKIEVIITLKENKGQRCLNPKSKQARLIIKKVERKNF
Test: yeast surface display FACS re-test; further: test concentration or dose not given here
Can you tell me % cells over threshold fluorescence for the items I'm about to list?
Numbers only, in %.

{"columns": ["BINDER", "TEST READOUT", "UNIT INFO", "VALUE OBSERVED"],
 "data": [
  ["P675_IXORI (other) GSNQLSGPQSSANSNDAVFCDTNCTQGTDGAWSGCRGDCFCVHVGNSTEGRCIELIGDFDYSTPGAED", "% cells over threshold fluorescence", "%", 55],
  ["P1078_IXORI (other) GSKGSSAQQSSHDSIKAEFCETNCTMKTGGKWTQCHGGCFCVHVGNETVGRCIKLDGDYDYPSSKHEE", "% cells over threshold fluorescence", "%", 38],
  ["P1080_IXORI (other) SAGSKGSSAPQSSGDSVVAEFCDTNCTMKKDGKWTECNGDCFCVHVGNETVGRCMRLDGDYDYTSSKTTRRNKKTRNGLCRLDRNRTTVDYPERNTREP", "% cells over threshold fluorescence", "%", 45],
  ["P942_IXORI (other) NQLSGPQSSANSNEAVFCDTNCTQGTDEAWSGCRGDCFCVYVGNSTEGRCMMLSGDFDYSTPGAED", "% cells over threshold fluorescence", "%", 37],
  ["P1090_IXORI (other) GSKELSGPESSENSIEAAFCDTNCTEGTDGVWSGCSAGCFCVHVGNSTVGRCMTFNGVDGG", "% cells over threshold fluorescence", "%", 32]
]}

Report measured % cells over threshold fluorescence; entry is P1074_IXORI (other) GSKESSAHQSSDDSIKAEFCDAKCTMKTDGKWTQCHGGCFCVHVGNETEGRCMRLDGDYDYPSTQPEE
33

Taken from patent US20240034757A1.
